tested on: CCRIS mutagenicity, Ames/micronucleus/aberration tests; assay: CCRIS mutagenicity studies; conditions: Test System: E. COLI; Strain/Indicator: WP2 UVRA; Metabolic Activation: NONE; Method: STANDARD PLATE
Active and inactive are the calls of the source. No rule for the calls is given here.
Your response should consist of one outcome taken from class 1 for active, class 0 for inactive

Some solved cases for reference:
OC[C@H]1OC(O[C@H]2[C@H](O)[C@@H](O)C(O[C@H]3[C@H](O)[C@@H](O)[C@@H](O)O[C@@H]3CO)O[C@@H]2CO)[C@H](O)[C@@H](O)[C@@H]1O (stereo partly specified)    class 0
ONc1ccc(-c2ccccc2)cc1    class 1
CCc1cc(O)cc2c3c([nH]c12)C(CC)(CC(=O)O)OCC3 (stereo unspecified)    class 0
COc1ccc(N)c(OC)c1    class 0
NNCCO    class 1

With those in mind, consider the next compound.
Challenge: Query: recorded result category for `Clc1ccc2c(c1)C(c1ccccc1)=NCc1nncn1-2` in this test
Response given: class 0

----------
Tested on: CCRIS mutagenicity, Ames/micronucleus/aberration tests
Experiment: CCRIS mutagenicity studies
Settings: Test System: AMES SALMONELLA TYPHIMURIUM; Strain/Indicator: TA98; Metabolic Activation: HAMSTER, LIVER, S-9, AROCLOR 1254 (10%); Method: PREINCUBATION
Excerpt: The CCRIS database contains chemical records with carcinogenicity, mutagenicity, tumor promotion, and tumor inhibition test results. It was developed by the National Cancer Institute (NCI). Data are derived from studies cited in primary journals, current awareness tools, NCI reports, and other sources. Test results have been reviewed by experts in carcinogenesis and mutagenesis. CCRIS provides historical information from the years 1985 - 2011. It is no longer updated. […]
The source made the active and inactive calls. No rule for the calls is given here.
Answer with one of the outcomes active, inactive

Worked set:
Cc1cc(C)cc(N)c1    inactive
COc1cc2c(cc1OC)[C@@]13CCN4CC5=CCO[C@H]6CC(=O)N2[C@H]1[C@H]6[C@H]5C[C@H]43    inactive
ClCC(Br)CBr (stereo not drawn)    active

Challenge: GET /call?item= `O=C1OC(=O)c2cc([N+](=O)[O-])ccc21` returns the recorded outcome of this test.
Response given: active

Challenge: Which result was noted for this compound in the test: `Cc1ccc(N=Nc2c(O)ccc3ccccc23)c([N+](=O)[O-])c1`
Response given: active

Challenge: Give the logged outcome of this assay for the following compound: CCC(C)Nc1ccc(NC(C)CC)cc1 (stereo not drawn)
Response given: inactive

Challenge: Just curious, what result did `O=S(=O)(O)c1ccc(N=Nc2c(O)ccc3cc(S(=O)(=O)O)ccc23)cc1` get here?
Response given: inactive

Challenge: Entry `CN(C)CCN(Cc1ccc(Cl)s1)c1ccccn1` : call = ?
Response given: inactive

Challenge: Check the results log: what was the call for `C=CC(=O)OCCOCCOCCOCCOC(=O)C=C` ?
Response given: inactive

Challenge: What did the test return for `O=C1OC(c2ccc(O)cc2)(c2ccc(O)cc2)c2ccccc21` ?
Response given: inactive

Challenge: Please state the recorded outcome for this compound: `C=C(C)C(=O)OCCCCCCCC`
Response given: inactive

Challenge: For CC(CC(=O)O)C(=O)O (stereo not drawn) , which call appears in the assay record?
Response given: inactive

Challenge: What was the test verdict on `CNc1ccc(N(CCO)CCO)cc1[N+](=O)[O-]` ?
Response given: active

----------
test system: CCRIS mutagenicity, Ames/micronucleus/aberration tests; experiment: CCRIS mutagenicity studies; conditions: Test System: E. COLI; Strain/Indicator: WP2 UVRA; Metabolic Activation: RAT, LIVER, S-9; Method: STANDARD PLATE
Active and inactive are the calls of the source. The rule behind the calls is not given here.
Field 'call' accepts active, inactive

Challenge: Hello, I am checking results. What call was entered for OC[C@H]1OC(O[C@H]2[C@H](O)[C@@H](O)C(O[C@H]3[C@H](O)[C@@H](O)[C@@H](O)O[C@@H]3CO)O[C@@H]2CO)[C@H](O)[C@@H](O)[C@@H]1O (stereo not given in full) ?
Response given: inactive

Challenge: Check the results log: what was the call for `CCN(N=O)c1ccccc1` ?
Response given: inactive

Challenge: Would you mind telling me which call this test gave `CCc1cccc2c(CCO)c[nH]c12` ?
Response given: inactive

Challenge: // outcome(item) with item = `COc1ccc(C(c2ccc(OC)cc2)C(Cl)(Cl)Cl)cc1`
Response given: inactive

Challenge: Per the assay record, what outcome was assigned to `Nc1ccc(O)c([N+](=O)[O-])c1` ?
Response given: inactive

Challenge: Dear all, I need the recorded test outcome for `COc1ccc(N)c(OC)c1` , thank you.
Response given: inactive

Challenge: What did the test return for `Nc1ncc([N+](=O)[O-])s1` ?
Response given: inactive

Challenge: // outcome(item) with item = `CC(=O)Nc1ccc(C(=O)CCl)cc1`
Response given: inactive

Challenge: I would be grateful if you could indicate the recorded call for O=P(OCC(Br)CBr)(OCC(Br)CBr)OCC(Br)CBr (stereo not given) .
Response given: inactive

----------
tested on: CCRIS mutagenicity, Ames/micronucleus/aberration tests; assay: CCRIS mutagenicity studies; conditions: Test System: AMES SALMONELLA TYPHIMURIUM; Strain/Indicator: TA100; Metabolic Activation: S-9; Method: PREINCUBATION
Active and inactive are the calls of the source. The rule behind the calls is not given here.
Your reply should match one of these outcome classes. label 1 (active), label 0 (inactive)

Illustrative cases are given below, each with its answer.
C[C@]12C=CC(=O)C=C1CC[C@@H]1[C@@H]2[C@@H](O)C[C@@]2(C)[C@H]1CC[C@]2(O)C(=O)CO    label 0
Nc1ccc(O)c(C(=O)O)c1    label 0
O=C1C(c2[nH]c3ccc(S(=O)(=O)O)cc3c2O)=Nc2ccc(S(=O)(=O)O)cc21    label 0
CC(=O)[C@]1(O)Cc2c(O)c3c(c(O)c2[C@@H](O[C@H]2C[C@H](N)[C@H](OC(C[C@H](C)O)O[C@@H](C)C=O)[C@H](C)O2)C1)C(=O)c1c(O)cccc1C3=O (stereo not given in full)    label 1
CC(C)(C)OC(=O)N/N=C/c1c[n+]([O-])c2ccccc2[n+]1[O-]    label 1

Challenge: What outcome does the record of this test show for `COc1cc(OC)c(Cl)c(-n2c(-c3ccccc3)cc(=O)c(C)c2-c2ccc(F)cc2)c1` ?
Response given: label 0

----------
System: CCRIS mutagenicity, Ames/micronucleus/aberration tests
Experiment: CCRIS mutagenicity studies
Details: Test System: AMES SALMONELLA TYPHIMURIUM; Strain/Indicator: TA98; Metabolic Activation: RAT, LIVER, S-9; Method: PREINCUBATION
Description: The CCRIS database contains chemical records with carcinogenicity, mutagenicity, tumor promotion, and tumor inhibition test results. It was developed by the National Cancer Institute (NCI). Data are derived from studies cited in primary journals, current awareness tools, NCI reports, and other sources. Test results have been reviewed by experts in carcinogenesis and mutagenesis. CCRIS provides historical information from the years 1985 - 2011. It is no longer updated. […]
Active and inactive are the calls of the source. The rule behind the calls is not given here.
A correct response names exactly one class from t (active), f (inactive)

c1ccc2ncccc2c1    t
Cc1cnc2ccccc2c1    f
CCN(N=O)c1ccccc1    f
Nc1ccc(-c2ccc(N)cc2)cc1    t
CC(=O)[C@]1(O)Cc2c(O)c3c(c(O)c2[C@@H](O[C@H]2C[C@H](N)[C@H](OC(C[C@H](C)O)O[C@@H](C)C=O)[C@H](C)O2)C1)C(=O)c1c(O)cccc1C3=O (stereo not given in full)    t
Cc1c([N+](=O)[O-])c2ccccc2c2ccc3ccccc3c12    t
CC(=O)N[C@@H]1[C@@H](O[C@@H]2O[C@H](C(=O)O)[C@@H](O[C@@H]3O[C@H](CO)[C@@H](O)[C@H](O[C@@H]4O[C@H](C(=O)O)[C@@H](O)[C@H](O)[C@H]4O)[C@H]3NC(C)=O)[C@H](O)[C@H]2O)[C@H](O)[C@@H](CO)O[C@H]1O    f
COC1=CC=CC=CC1    f

Challenge: I would be grateful if you could indicate the recorded call for `Oc1cccc2ncccc12` .
Response given: t

Challenge: Check the results log: what was the call for `CCCCCC(=O)Cc1cc(O)cc2c1C(=O)Oc1cc(O)c(C(=O)O)c(CCCCC)c1O2` ?
Response given: f

----------
test system: CCRIS mutagenicity, Ames/micronucleus/aberration tests; experiment: CCRIS mutagenicity studies; conditions: Test System: AMES SALMONELLA TYPHIMURIUM; Strain/Indicator: TA97; Metabolic Activation: NONE; Method: PREINCUBATION
The source made the active and inactive calls. How the calls were made is not given here.
# valid calls are true (1) (active), false (0) (inactive); nothing else

Examples with answers:
Cc1ccc(Br)cc1    false (0)
COc1cc([N+](=O)[O-])ccc1N=NC(C(C)=O)C(=O)Nc1ccccc1OC (stereo not given)    false (0)
Clc1ccc2ccccc2c1    false (0)
c1ccccc1    false (0)
Nc1ccc(O)c([N+](=O)[O-])c1    false (0)
O=C/C=C/c1ccco1    false (0)

Challenge: Recorded test call requested for `CCCCCC(=O)OCC`
Response given: false (0)
